Known Ki of a selection of binders
test.target: human plasmin (human, UniProt P00747 97-810, limits assumed)
Sequence (P00747 97-810 limits assumed): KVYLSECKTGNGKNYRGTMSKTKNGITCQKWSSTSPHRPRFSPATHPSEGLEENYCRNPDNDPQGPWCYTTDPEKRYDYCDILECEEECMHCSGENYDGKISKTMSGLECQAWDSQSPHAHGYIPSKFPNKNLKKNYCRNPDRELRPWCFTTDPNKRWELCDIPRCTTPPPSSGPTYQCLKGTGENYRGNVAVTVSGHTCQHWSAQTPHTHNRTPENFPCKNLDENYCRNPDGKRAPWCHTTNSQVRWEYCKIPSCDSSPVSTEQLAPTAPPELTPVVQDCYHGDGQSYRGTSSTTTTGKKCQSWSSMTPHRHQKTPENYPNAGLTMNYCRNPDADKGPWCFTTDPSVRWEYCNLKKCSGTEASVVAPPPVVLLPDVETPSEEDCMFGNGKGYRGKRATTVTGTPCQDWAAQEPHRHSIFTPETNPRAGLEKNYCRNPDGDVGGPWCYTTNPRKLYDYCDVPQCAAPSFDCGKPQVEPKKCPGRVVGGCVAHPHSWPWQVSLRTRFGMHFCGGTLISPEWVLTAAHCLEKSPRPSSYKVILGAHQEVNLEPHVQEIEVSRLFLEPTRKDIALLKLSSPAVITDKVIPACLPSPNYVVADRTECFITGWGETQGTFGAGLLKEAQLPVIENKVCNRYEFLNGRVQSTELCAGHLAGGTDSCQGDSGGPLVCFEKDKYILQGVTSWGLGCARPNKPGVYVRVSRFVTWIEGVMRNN
experiment.summary: chromogenic (S-2251) amidolytic inhibition assay, plasmin 30 nM
# number only, unit nM dropped from output

Record excerpt, results attached:
R29D KD1 (other, Point mutant of His-tagged KD1, KD1 numbering; also called R29D (R20D); not shown: N-terminal decahistidine-tag leader and enterokinase cleavage site from pET19b) DAAQEPTGNNAEICLLPLDYGPCRALLLDYYYDRYTQSCRQFLYGGCEGNANNFYTWEACDDACWRIEKVPKV    261
G21D KD1 (other, Point mutant of His-tagged KD1, KD1 numbering; also called G21D (G12D); not shown: N-terminal decahistidine-tag leader and enterokinase cleavage site from pET19b) DAAQEPTGNNAEICLLPLDYDPCRALLLRYYYDRYTQSCRQFLYGGCEGNANNFYTWEACDDACWRIEKVPKV    59

Q. Provide measured Ki value, entry: R29K KD1 (other, Point mutant of His-tagged KD1, KD1 numbering; also called R29K (R20K); not shown: N-terminal decahistidine-tag leader and enterokinase cleavage site from pET19b) DAAQEPTGNNAEICLLPLDYGPCRALLLKYYYDRYTQSCRQFLYGGCEGNANNFYTWEACDDACWRIEKVPKV
A. 5

Q. Provide measured Ki value, entry: D19A KD1 (other, Point mutant of His-tagged KD1, KD1 numbering; also called D19A (D10A); not shown: N-terminal decahistidine-tag leader and enterokinase cleavage site from pET19b) DAAQEPTGNNAEICLLPLAYGPCRALLLRYYYDRYTQSCRQFLYGGCEGNANNFYTWEACDDACWRIEKVPKV
A. 118

Q. Provide measured Ki value, entry: R24Q KD1 (other, Point mutant of His-tagged KD1, KD1 numbering; also called R24Q (R15Q); not shown: N-terminal decahistidine-tag leader and enterokinase cleavage site from pET19b) DAAQEPTGNNAEICLLPLDYGPCQALLLRYYYDRYTQSCRQFLYGGCEGNANNFYTWEACDDACWRIEKVPKV
A. 48

Q. Provide measured Ki value, entry: R24K KD1 (other, also called R24K (R15K); R24K KD1 polypeptide; not shown: N-terminal extension from the expression vector) DAAQEPTGNNAEICLLPLDYGPCKALLLRYYYDRYTQSCRQFLYGGCEGNANNFYTWEACDDACWRIEKVPKV
A. 0.85

Q. Provide measured Ki value, entry: Y20A KD1 (other, Point mutant of His-tagged KD1, KD1 numbering; also called Y20A (Y11A); not shown: N-terminal decahistidine-tag leader and enterokinase cleavage site from pET19b) DAAQEPTGNNAEICLLPLDAGPCRALLLRYYYDRYTQSCRQFLYGGCEGNANNFYTWEACDDACWRIEKVPKV
A. 16

Q. Provide measured Ki value, entry: F42A KD1 (other, Point mutant of His-tagged KD1, KD1 numbering; also called F42A (F33A); not shown: N-terminal decahistidine-tag leader and enterokinase cleavage site from pET19b) DAAQEPTGNNAEICLLPLDYGPCRALLLRYYYDRYTQSCRQALYGGCEGNANNFYTWEACDDACWRIEKVPKV
A. 79
